Reported pKd values for the following binders.
Target: T1, Recombinant human G-CSFR (Glu25-Pro621, 381-GR/CF, R&D Systems) (human, UniProt Q99062 25-621)
T1 construct: range 25-621; Bought protein, amine-coupled to a CM5 chip for SPR; also called rhG-CSFR; granulocyte-colony stimulating factor receptor
T1 sequence (looked up): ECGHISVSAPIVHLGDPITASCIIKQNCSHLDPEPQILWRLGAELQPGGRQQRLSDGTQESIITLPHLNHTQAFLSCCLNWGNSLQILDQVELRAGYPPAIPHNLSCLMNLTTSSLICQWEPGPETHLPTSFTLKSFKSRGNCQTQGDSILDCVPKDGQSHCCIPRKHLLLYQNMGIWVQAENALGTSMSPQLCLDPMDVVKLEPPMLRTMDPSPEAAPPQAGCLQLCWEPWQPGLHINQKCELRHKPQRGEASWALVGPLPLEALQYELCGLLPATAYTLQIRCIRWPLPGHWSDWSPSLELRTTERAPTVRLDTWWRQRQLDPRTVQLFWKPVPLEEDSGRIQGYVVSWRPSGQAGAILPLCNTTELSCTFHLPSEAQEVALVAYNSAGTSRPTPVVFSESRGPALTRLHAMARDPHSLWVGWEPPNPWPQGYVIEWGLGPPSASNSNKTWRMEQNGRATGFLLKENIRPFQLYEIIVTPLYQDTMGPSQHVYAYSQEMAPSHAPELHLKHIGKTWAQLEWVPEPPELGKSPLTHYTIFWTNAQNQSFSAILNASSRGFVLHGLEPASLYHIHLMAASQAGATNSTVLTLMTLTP
Assay: SPR, Biacore X100, multi-cycle kinetics, rhG-CSFR amine-coupled to CM5 chip, design as analyte, 1:1 model; series of Fig. 6 (from 20 nM)
Here pKd is given on a logarithmic scale as minus log10 of the concentration in mol/L.

Worked examples follow.
bop2 (designed binder, Strictly monomeric in solution; Expressed from pET28a downstream of an N-terminal His-tag and thrombin cleavage site; also called bivalent-orientation parallel design 2) MAALDAALYDIYDGLILYQQQLESLEGISPELGPALDALRYDMADFAILMAQAMEEGLDSLPQSFLRKALEMIRKIQADAAALREKLAATYKGNDRAAAAQSIARKLEEMLRKAYQDLRHLAAA	9.07
boa1 (designed binder, Strictly monomeric in solution; Expressed from pET28a downstream of an N-terminal His-tag and thrombin cleavage site; also called bivalent-orientation antiparallel design 1) MAALAAALQSIYRKLAEMQAKLKSLEGISPELGPALDALRYDMADFAILMAQAMEEGLDSLPQSFLRKALEMIRKIQADAAALREKLAATYKGNDRADAAVYIAADLEILLEQAYQILRHLAAA	8.43
boa2 (designed binder, Strictly monomeric in solution; Expressed from pET28a downstream of an N-terminal His-tag and thrombin cleavage site; also called bivalent-orientation antiparallel design 2) MAALAAALQSIYRKLAEMQRKLKSLEGISPELGPALDALRYDMADFAILMAQAMEEGLDSLPQSFLRKALEMIRKIQADAAALREKLAATYKGNDRADAAVYDAADLEILLEQAYEILRHLAAA	8.96
bv6 (designed binder, Expressed from pET28a downstream of an N-terminal His-tag and thrombin cleavage site; Minorly dimeric in solution; also called starting template) MAALAAALAEIYKGLAEYQARLKSLEGISPELGPALDALRYDMADFAILMAQAMEEGLDSLPQSFLRKALEMIRKIQADAAALREKLAATYKGNDRAAAAVEIAAQLEAFLEKAYQILRHLAAA	8.37

Problem: For the binder shown here, bop1 (designed binder, De novo four-helix bundle, strictly monomeric in solution; Expressed from pET28a downstream of an N-terminal His-tag and thrombin cleavage site; also called bivalent-orientation parallel design 1) MAALDAALYEIYDGLILYQQRLKSLEGISPELGPALDALRYDMADFAILMAQAMEEGLDSLPQSFLRKALEMIRKIQADAAALREKLAATYKGNDRAAAAQSIARKLEEMLEKAYQILRHLAAA , give the reported pKd.
Result: 8.57
